Assay: inhibitors of CD8+ T cell–vesicle binding, dose response, mouse 2C CD8+ T cells, flow cytometry (AID 485284);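 note: drosophila derived vesicles carrying Ld MHC with QL9 peptide plus B7-1 and ICAM-1; vesicle binding seen as anti-B7-1 PE fluorescence on CD8 gated cells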
Details: 2C mouse CD8+ T cell-exosome binding; at 45 µM (top of the series)
Measured potencies and affinities stand elsewhere.
Below: a set of entries, each annotated with reported binding remaining, % of control.

Line Notation: O=C(Nc1ccc(Cl)cc1)O/N=C(\c1ccccc1)c1ccccn1
binding remaining, % of control / %: 85.8

Line Notation: Cc1sc2ncnc(NCC(C)(C)N3CCOCC3)c2c1C
binding remaining, % of control / %: 133

Line Notation: CC(C)(O)C(=O)Nc1ccc([N+](=O)[O-])c(C(F)(F)F)c1
binding remaining, % of control / %: 166

Line Notation: COC(=O)C1=C(c2c(C)noc2C)C[C@@H]2CC[C@H]1N2C(=O)NCCOc1ccccc1Cl
binding remaining, % of control / %: 124
